Assay: Plasma exposure after single oral administration in nude mice
Assay type: in vivo
Details: mouse, single oral 50 mg/kg, read-out: Plasma exposure (AUC0–24 h)

[
  {
    "compound": "CS(=O)(=O)CCNCc1ccc(-c2ccc3ncnc(Nc4ccc(OCc5cccc(F)c5)c(Cl)c4)c3c2)o1 [Lapatinib, reference compound]",
    "AUC(0-t) / ng·h/mL": 34100
  },
  {
    "compound": "CC#CC(=NOCC1COCCN1)c1ccc2ncnc(Nc3ccc(OCc4cccc(F)c4)c(Cl)c3)c2c1 (centres unmarked) [Epertinib]",
    "AUC(0-t) / ng·h/mL": 9980
  }
]

====

Test: Plasma and brain pharmacokinetics after single oral administration in mice implanted intracranially with MDA-MB-361 cells
Settings: female, BALB/cAJcl-nu/nu, mouse, plasma, po, 20 mg/kg
Listing of entries alongside the reported concentration at 4 h.
assay readout: concentration at 4 h (ng/mL)

[
  {
    "molecule": "CS(=O)(=O)CCNCc1ccc(-c2ccc3ncnc(Nc4ccc(OCc5cccc(F)c5)c(Cl)c4)c3c2)o1 [Lapatinib, reference compound]",
    "unit symbol": "ng/mL",
    "test value": 461
  },
  {
    "molecule": "CC#CC(=NOCC1COCCN1)c1ccc2ncnc(Nc3ccc(OCc4cccc(F)c4)c(Cl)c3)c2c1 (centres unmarked) [Epertinib]",
    "unit symbol": "ng/mL",
    "test value": 115
  }
]
